- PROCEDURE SUMMARY: Antioxidant activity assessed as trolox equivalent of ABTS free radical scavenging activity after 6 mins by […]
- Assay type: functional
VALUE TYPE: EC50 (µM)

[[record]]
compound = "Cc1ccc2c(c1)C1(Nc3ccccc3S1)C(=O)N2C (stereo not given)"
output_unit = "µM"
recorded_value = 980

[[record]]
compound = "Cc1c(C)c2c(c(C)c1O)CC[C@@](C)(CCC[C@H](C)CCC[C@H](C)CCCC(C)C)O2"
output_unit = "µM"
recorded_value = 1200

[[record]]
compound = "Cc1ccc2c(c1)C1(Nc3ccccc3S1)C(=O)N2 (stereo not given)"
output_unit = "µM"
recorded_value = 1020


a = CN1C(=O)C2(Nc3ccccc3S2)c2cc(Cl)ccc21 (stereo not given)
b = O=C1Nc2ccc([N+](=O)[O-])cc2C12Nc1ccccc1S2 (stereo not given)
Could you kindly indicate whether a or b has the higher EC50 value? Field: selected label. Fill in the label of the entry you choose.
b

* * *

- PROCEDURE SUMMARY: Antioxidant activity assessed as reduction of […]/ferricyanide complex after 20 mins by spectrophotometry
- Format: functional
pEC50: −log10 of the molar value.
VALUE TYPE: pEC50

Illustrative cases are given below, each with its answer.
[[record]]
compound = "CN1C(=O)C2(Nc3ccccc3S2)c2cc(OC(F)(F)F)ccc21 (stereo not given)"
value_type = "pEC50"
recorded_value = 2.31

[[record]]
compound = "O=C1Nc2ccc(Cl)cc2C12Nc1ccccc1S2 (stereo not given)"
value_type = "pEC50"
recorded_value = 3.29

[[record]]
compound = "Cc1c(C)c2c(c(C)c1O)CC[C@@](C)(CCC[C@H](C)CCC[C@H](C)CCCC(C)C)O2 [ALPHA-TOCOPHEROL]"
value_type = "pEC50"
recorded_value = 2.71

[[record]]
compound = "O=C1Nc2ccc([N+](=O)[O-])cc2C12Nc1ccccc1S2 (stereo not given)"
value_type = "pEC50"
recorded_value = 3.10

[[record]]
compound = "O=C1O[C@H]([C@@H](O)CO)C(O)=C1O [ASCORBIC ACID]"
value_type = "pEC50"
recorded_value = 3.19


A = Cc1ccc2c(c1)C1(Nc3ccccc3S1)C(=O)N2 (stereo not given)
B = Cc1ccc2c(c1)C1(Nc3ccccc3S1)C(=O)N2C (stereo not given)
# query: argmin of pEC50 over A and B Field: selected label. Fill in the label of the entry you choose.
A

* * *

- PROCEDURE SUMMARY: Antioxidant activity assessed as trolox equivalent of ABTS free radical scavenging activity after 6 mins by […]
- Format: functional
VALUE TYPE: EC50 (µM)

[[record]]
compound = "O=C1Nc2ccc(Cl)cc2C12Nc1ccccc1S2 (stereo not given)"
recorded_value = 1030

[[record]]
compound = "O=C1O[C@H]([C@@H](O)CO)C(O)=C1O"
recorded_value = 1200

[[record]]
compound = "CN1C(=O)C2(Nc3ccccc3S2)c2cc(OC(F)(F)F)ccc21 (stereo not given)"
recorded_value = 1370

[[record]]
compound = "CN1C(=O)C2(Nc3ccccc3S2)c2cc(Br)ccc21 (stereo not given)"
recorded_value = 1040

[[record]]
compound = "CN1C(=O)C2(Nc3ccccc3S2)c2cc([N+](=O)[O-])ccc21 (stereo not given)"
recorded_value = 1340


* * *

- PROCEDURE SUMMARY: Antioxidant activity assessed as reduction of […]/ferricyanide complex after 20 mins by spectrophotometry
- Format: functional
pEC50: −log10 of the molar value.
VALUE TYPE: pEC50

[[record]]
compound = "CN1C(=O)C2(Nc3ccccc3S2)c2cc(Br)ccc21 (stereo not drawn)"
recorded_value = 2.37

[[record]]
compound = "CN1C(=O)C2(Nc3ccccc3S2)c2cc(Cl)ccc21 (stereo not drawn)"
recorded_value = 2.40

[[record]]
compound = "CN1C(=O)C2(Nc3ccccc3S2)c2cc([N+](=O)[O-])ccc21 (stereo not drawn)"
recorded_value = 2.29


Source listed as ChEMBL document CHEMBL1154871.
